B1: STEAP1 (parent)
chain: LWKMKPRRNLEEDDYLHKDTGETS

# Variants of: B1
# method: protein stability index of a GFP-peptide fusion (GPS, HEK-293T) (PSI 1-6); higher = more stable;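 note: lentivirally expressed fusions sorted by FACS into six bins by GFP to DsRed ratio, PSI derived from sequencing read proportions per bin multiplied by bin number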
# recorded.conditions: c terminus: a fixed tail appended
Each entry gets rule not met if its protein stability index stays under 4, and rule met if its protein stability index is 4 or above.

Example entries and their recorded answers appear below.
>  <mutation.code>
K5E

>  <class.label>
rule met

$$$$
>  <mutation.code>
M4A

>  <class.label>
rule met

$$$$
>  <mutation.code>
D13L

>  <class.label>
rule not met

$$$$
>  <mutation.code>
Y15E

>  <class.label>
rule met

$$$$
>  <mutation.code>
G21N

>  <class.label>
rule met

$$$$

Please indicate if the recorded protein stability index for R7P meets or exceeds 4.
rule met

Next up: K18E
rule met

What would you report for Y15K ?
rule met

Another variant to check: K3I
rule not met

Another: E11T
rule met

Where do these numbers come from? They come from the supplement of paper PMC10567573.
